Item-by-item account of Fluorescence Intensity Geomean (normalized to background)
# testedTarget: T1, human CD1a expressed on cells (human, UniProt P06126 17-327; P61769 21-119)
# T1 construct: also called HEK - CD1a; C1R - CD1a
# assayComment: flow cytometry, C1R cells, 100 µg/ml antibody
Entry format: amount then unit.

These solved cases illustrate the format of a correct answer.
binder	endpointValue
111 (VR12113) (antibody, V domains shown, also called OX111) VH: QSVEESGGRLVTPGTPLTLTCTASGFSLSTYAMSWVRQAPGKGLEWIGIISSSGSTYYASWAKGRFTISKTSTTVDLKITSPTTEDTATYFCARETWYWLDLWGQGTLVTVSS VL: AVEMTQTPASVSAAVGGTVTINCQASEDIYSNLAWYQQKPGQPPKLLIYGASTLASGVPSRFKGSGSGTEYTLTISGVQCDDAATYYCQCAYDSSSYGTPFGGGTEVVVK	7.3 fold over background
116 (VR12117) (antibody, V domains shown, also called OX116) VH: QSVEESGGRLVTPGTPLTLTCTVSGFSLSNYAMSWVRQAPGKGLEWIGIIYTTGFTYYASWVKGRFTISKTSTTVDLKITSPTTEDTATYFCARGLATYVSPPTRLDLWGQGTLVTVSS VL: AQVLTQTPSPVSAAVGGTVTINCQASQSIYNSKNLAWYQQKPGQPPKLLIYSASTLASGVPSRFKGSGSGTQFTLTISDLECDDAATYYCQGEFSCSSVDCATFGGGTEVVVK	11.9 fold over background

Read the next record carefully.
Data request: Endpoint output: Fluorescence Intensity Geomean (normalized to background) of 77A (VR11851) (antibody, V domains shown, also called OX77a; antibody 77a) VH: QSVEESGGRLVTPGTPLTLTCTVSGFSLSSYAMSWVRQAPGKGLEWIGIISSSGTTYYASWAKGRFTISKTSTTVDLKITSPTTEDTATYFCARVDYYSSGWGGLWGPGTLVTVSS VL: AVEMTQTPASMSAAVGGTVTIKCQASEDIYSNLAWYQQKPGQPPKLLIYGASTLASGVPSRFKGSGSGTEYTLTISGVQCDDAATYYCQCTYDTSSYGNTFGGGTEMVVE . Value?
Data returned: 0.9 fold over background
